# Test Method Notes: Protein binding in mouse plasma at 10 uM
# Assay type: ADME, cell-free
# Recorded Conditions: read-out: PPB
Measure: fraction unbound at 10 µM

// sample `CS[C@@]1(C(=O)Nc2ccc3[nH]nc(-c4ccc(OC(C)C)nc4)c3c2)CCN(CC(=O)N2CC=C(c3ccc(-c4ncn(C)n4)cc3)CC2)C1` , its fraction unbound at 10 µM was < 0.01

###

# Measurement Target: Cytochrome P450 3A4 (Homo sapiens, UniProt P08684)
# Sequence (P08684 whole entry): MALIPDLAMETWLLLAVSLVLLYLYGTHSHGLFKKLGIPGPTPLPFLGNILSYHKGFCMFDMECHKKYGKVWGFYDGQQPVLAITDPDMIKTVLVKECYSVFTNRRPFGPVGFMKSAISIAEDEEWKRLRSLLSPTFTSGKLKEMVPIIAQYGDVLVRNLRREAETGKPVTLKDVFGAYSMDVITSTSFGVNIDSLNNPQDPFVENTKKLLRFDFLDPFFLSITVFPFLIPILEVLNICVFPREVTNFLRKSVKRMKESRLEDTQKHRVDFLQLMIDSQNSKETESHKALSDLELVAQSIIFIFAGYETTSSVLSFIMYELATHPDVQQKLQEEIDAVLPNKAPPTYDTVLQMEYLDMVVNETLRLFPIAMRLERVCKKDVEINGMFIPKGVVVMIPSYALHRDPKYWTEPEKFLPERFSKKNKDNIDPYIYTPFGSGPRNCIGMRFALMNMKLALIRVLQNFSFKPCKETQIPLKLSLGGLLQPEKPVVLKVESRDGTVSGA
# Test Method Notes: Inhibition of CYP3A4 (unknown origin) co-incubated with substrate
# Type: ADME
pIC50: −log10 of the molar value.
Measure: pIC50

// recorded pIC50 for CS[C@@]1(C(=O)Nc2ccc3[nH]nc(-c4ccc(OC(C)C)nc4)c3c2)CCN(CC(=O)N2CC=C(c3ccc(-c4ncn(C)n4)cc3)CC2)C1 [MK-8353] : < 5.30

###

# Test Method Notes: Oral bioavailability in Beagle dog at 30 mg/kg
# Assay type: ADME, organism-based, Canis lupus familiaris
# Recorded Conditions: in vivo
Measure: bioavailability (%)
Unit % implied. Number only.

Quick note, bioavailability for `CS[C@@]1(C(=O)Nc2ccc3[nH]nc(-c4ccc(OC(C)C)nc4)c3c2)CCN(CC(=O)N2CC=C(c3ccc(-c4ncn(C)n4)cc3)CC2)C1` landed at 23

###

# Test Method Notes: Oral bioavailability in monkey at 10 mg/kg
# Recorded Conditions: cynomolgus monkey, in vivo
Measure: bioavailability (%)
Unit % implied. Number only.

Notebook: `CS[C@@]1(C(=O)Nc2ccc3[nH]nc(-c4ccc(OC(C)C)nc4)c3c2)CCN(CC(=O)N2CC=C(c3ccc(-c4ncn(C)n4)cc3)CC2)C1` , bioavailability read as 2

###

# Test Method Notes: Mean residence time in monkey at 1 mg/kg, iv
# Recorded Conditions: cynomolgus monkey, in vivo
Measure: MRT (h)
The response must be a number in h with no trailing unit.

The molecule CS[C@@]1(C(=O)Nc2ccc3[nH]nc(-c4ccc(OC(C)C)nc4)c3c2)CCN(CC(=O)N2CC=C(c3ccc(-c4ncn(C)n4)cc3)CC2)C1 [MK-8353] showed MRT equal to 1.9

###

# Measurement Target: Cytochrome P450 2C8 (Homo sapiens)
# Sequence (P10632 whole entry): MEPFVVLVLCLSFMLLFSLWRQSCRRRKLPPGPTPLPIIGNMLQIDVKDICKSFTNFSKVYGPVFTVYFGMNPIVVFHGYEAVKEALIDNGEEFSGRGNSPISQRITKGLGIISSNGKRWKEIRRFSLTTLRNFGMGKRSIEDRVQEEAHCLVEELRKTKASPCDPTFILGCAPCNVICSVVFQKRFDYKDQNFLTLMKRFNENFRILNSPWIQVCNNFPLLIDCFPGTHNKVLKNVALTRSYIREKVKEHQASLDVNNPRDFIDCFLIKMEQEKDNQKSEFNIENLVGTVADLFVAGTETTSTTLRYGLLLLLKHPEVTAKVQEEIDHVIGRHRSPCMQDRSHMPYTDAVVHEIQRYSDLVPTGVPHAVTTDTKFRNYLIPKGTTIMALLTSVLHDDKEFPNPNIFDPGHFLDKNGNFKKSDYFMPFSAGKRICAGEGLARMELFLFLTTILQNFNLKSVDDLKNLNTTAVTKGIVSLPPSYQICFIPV
# Test Method Notes: Inhibition of CYP2C8 (unknown origin) co-incubated with substrate
# Assay type: ADME
pIC50: −log10 of the molar value.
Measure: pIC50

The reported pIC50 value, Cytochrome P450 2C8 (Homo sapiens), for `CS[C@@]1(C(=O)Nc2ccc3[nH]nc(-c4ccc(OC(C)C)nc4)c3c2)CCN(CC(=O)N2CC=C(c3ccc(-c4ncn(C)n4)cc3)CC2)C1` reads < 5.30

###

# Test Method Notes: Mean residence time in Sprague-Dawley rat at 3 mg/kg, iv
# Assay type: ADME, organism-based
# Recorded Conditions: in vivo
Measure: MRT (h)
Report only the number, with the unit h understood.

For reference, reported MRT for `CS[C@@]1(C(=O)Nc2ccc3[nH]nc(-c4ccc(OC(C)C)nc4)c3c2)CCN(CC(=O)N2CC=C(c3ccc(-c4ncn(C)n4)cc3)CC2)C1` stands at 2.3

###

# Test Method Notes: Mean residence time in Beagle dog at 3 mg/kg, iv
# Format: ADME, organism-based, Canis lupus familiaris
# Recorded Conditions: in vivo
Measure: MRT (h)
Field format: number, assumed h, no unit text.

// field: MRT; key: `CS[C@@]1(C(=O)Nc2ccc3[nH]nc(-c4ccc(OC(C)C)nc4)c3c2)CCN(CC(=O)N2CC=C(c3ccc(-c4ncn(C)n4)cc3)CC2)C1` ; value = 4

###

# Measurement Target: hERG (KCNH2) (Homo sapiens)
# Sequence (Q12809 whole entry): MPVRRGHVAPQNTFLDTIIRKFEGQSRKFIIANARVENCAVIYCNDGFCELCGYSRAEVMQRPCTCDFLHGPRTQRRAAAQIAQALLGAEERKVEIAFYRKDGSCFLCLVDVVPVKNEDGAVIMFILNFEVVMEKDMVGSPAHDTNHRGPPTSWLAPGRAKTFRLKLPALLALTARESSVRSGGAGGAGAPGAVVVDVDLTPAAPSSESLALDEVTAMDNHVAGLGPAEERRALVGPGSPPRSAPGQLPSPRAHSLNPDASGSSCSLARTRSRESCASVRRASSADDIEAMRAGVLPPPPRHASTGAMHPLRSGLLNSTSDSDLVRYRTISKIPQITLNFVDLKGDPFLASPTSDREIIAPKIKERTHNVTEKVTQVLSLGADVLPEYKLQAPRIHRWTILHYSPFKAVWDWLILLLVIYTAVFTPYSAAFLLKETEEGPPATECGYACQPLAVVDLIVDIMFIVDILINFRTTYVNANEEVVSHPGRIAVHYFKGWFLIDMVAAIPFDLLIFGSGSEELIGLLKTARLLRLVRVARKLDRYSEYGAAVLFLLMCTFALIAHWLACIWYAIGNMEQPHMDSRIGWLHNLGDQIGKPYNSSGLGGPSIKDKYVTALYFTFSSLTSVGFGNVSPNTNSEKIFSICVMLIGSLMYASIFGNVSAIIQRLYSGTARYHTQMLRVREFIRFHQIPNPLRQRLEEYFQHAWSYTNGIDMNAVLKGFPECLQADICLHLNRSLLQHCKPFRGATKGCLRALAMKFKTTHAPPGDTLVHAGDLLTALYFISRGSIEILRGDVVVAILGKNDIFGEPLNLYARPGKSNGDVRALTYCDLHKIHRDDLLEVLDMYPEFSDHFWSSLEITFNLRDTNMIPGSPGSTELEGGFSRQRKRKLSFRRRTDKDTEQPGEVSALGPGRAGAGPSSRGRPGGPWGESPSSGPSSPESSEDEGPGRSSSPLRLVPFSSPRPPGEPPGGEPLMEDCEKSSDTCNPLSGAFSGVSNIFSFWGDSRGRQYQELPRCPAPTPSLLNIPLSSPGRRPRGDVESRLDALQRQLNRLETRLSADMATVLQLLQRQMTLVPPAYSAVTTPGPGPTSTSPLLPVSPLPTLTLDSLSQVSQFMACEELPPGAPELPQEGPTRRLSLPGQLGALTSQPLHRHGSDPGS
# Test Method Notes: Inhibition of human ERG at 5 mg/ml by binding assay relative to control
# Design: dose or concentration left out as unconfirmed
# if value of inhibition reaches 10%, tag Yes; if it stays below, tag No

molecular_string=CS[C@@]1(C(=O)Nc2ccc3[nH]nc(-c4ccc(F)cc4)c3c2)CCN(CC(=O)N2CCN(c3ccc(-c4ncccn4)cc3)CC2)C1 class_name=Yes

## Task In plain terms: is recorded inhibition at least 10% for `CS[C@@]1(C(=O)Nc2ccc3[nH]nc(-c4ccc(OC(C)C)nc4)c3c2)CCN(CC(=O)N2CC=C(c3ccc(-c4ncn(C)n4)cc3)CC2)C1` ?
## Result No

## Task In plain terms: is recorded inhibition at least 10% for `CS[C@@]1(C(=O)Nc2ccc3[nH]nc(-c4ccc5c(c4)OCO5)c3c2)CCN(CC(=O)N2CC=C(c3ccc(-c4ncccn4)cc3)CC2)C1` ?
## Result Yes

## Task Test whether the compound `CS[C@@]1(C(=O)Nc2ccc3[nH]nc(-c4ccc(OC(C)C)nc4)c3c2)CCN(CC(=O)N2CC=C(c3ccc(-c4ncccn4)cc3)CC2)C1` records inhibition of 10% or higher.
## Result Yes

###

# Measurement Target: hERG (KCNH2) (Homo sapiens)
# Test Method Notes: Inhibition of human ERG at 10 uM by IonWork assay relative to control
Parameter inhibition at 10 µM: see the listing below.
Just the number please, in %, no unit attached.

Illustrative cases are given below, each with its answer.
compound=COc1cc(-c2n[nH]c3ccc(NC(=O)[C@]4(SC)CCN(CC(=O)N5CC=C(c6ccc(-c7ncccn7)cc6)CC5)C4)cc23)ccn1 result=19
compound=COc1cc(-c2n[nH]c3ccc(NC(=O)[C@]4(SC)CCN(CC(=O)N5CC=C(c6ccc(-c7ncn(C)n7)cc6)CC5)C4)cc23)ccn1 result=7.2
compound="CS[C@@]1(C(=O)Nc2ccc3[nH]nc(-c4ccc(OC(C)C)nc4)c3c2)CCN(CC(=O)N2CC=C(c3ccc(-c4ncn(C)n4)cc3)CC2)C1 [MK-8353]" result=-0.2

Field inhibition at 10 µM (hERG (KCNH2) (Homo sapiens)), entry `CS[C@]1(C(=O)Nc2ccc3[nH]nc(-c4ccc(OC(C)C)nc4)c3c2)CCN(CC(=O)N2CC=C(c3ccc(-c4ncn(C)n4)cc3)CC2)C1` : 10

Considering `CC(C)Oc1ccc(-c2n[nH]c3ccc(NC(=O)[C@]4(S(C)(=O)=O)CCN(CC(=O)N5CC=C(c6ccc(-c7ncn(C)n7)cc6)CC5)C4)cc23)cn1` , its inhibition at 10 µM with hERG (KCNH2) (Homo sapiens) was recorded as 5

###

# Measurement Target: UniProt Q12809
# Test Method Notes: Inhibition of human ERG at 5 mg/ml by binding assay relative to control
# Parameters: dose or concentration left out as unconfirmed
Answer NOT MET if inhibition is under 20%, and MET if it is 20% or more.

molecular_string=CS[C@@]1(C(=O)Nc2ccc3[nH]nc(-c4ccc(F)cc4)c3c2)CCN(CC(=O)N2CCC(c3ccc(-c4ncccn4)cc3)CC2)C1 class_name="NOT MET"
molecular_string=CS[C@@]1(C(=O)Nc2ccc3[nH]nc(-c4ccc(F)cc4)c3c2)CCN(CC(=O)N2CC=C(c3ccc(-c4ncccn4)cc3F)CC2)C1 class_name=MET
molecular_string=CCNc1ncc(-c2ccc(C3=CCN(C(=O)CN4CC[C@@](SC)(C(=O)Nc5ccc6[nH]nc(-c7ccnc(C)c7)c6c5)C4)CC3)cc2)s1 class_name="NOT MET"

## Task Check this compound for inhibition at or above 20%: `CS[C@@]1(C(=O)Nc2ccc3[nH]nc(-c4ccc(F)cc4)c3c2)CCN(CC(=O)N2CC=C(c3nc(-c4ncccn4)cs3)CC2)C1`
## Result NOT MET

## Task Test whether the compound `CCNc1nnc(-c2ccc(C3=CCN(C(=O)CN4CC[C@@](SC)(C(=O)Nc5ccc6[nH]nc(-c7ccc(F)cc7)c6c5)C4)CC3)cc2)o1` records inhibition of 20% or higher.
## Result NOT MET

## Task Quick check: does `COc1cc(-c2n[nH]c3ccc(NC(=O)[C@]4(SC)CCN(CC(=O)N5CC=C(c6ccc(-c7ncccn7)cc6)CC5)C4)cc23)ccn1` have inhibition greater than or equal to 20%?
## Result NOT MET

###

# Test Method Notes: Mean residence time in rat
# Assay type: ADME, organism-based
# Recorded Conditions: in vivo
Measure: MRT (h)
Report as a plain number; the unit h is understood.

compound `O=C(Nc1ccc2[nH]nc(-c3ccncc3)c2c1)[C@@H]1CCN(CC(=O)N2CCN(c3ccc(-c4ncccn4)cc3)CC2)C1` , MRT observed: 1.6

###

# Test Method Notes: Tmax in Beagle dog at 30 mg/kg, po
# Format: ADME, organism-based, Canis lupus familiaris
# Recorded Conditions: in vivo
Measure: Tmax (h)
# output: bare number, implied unit h

In plain terms, `CS[C@@]1(C(=O)Nc2ccc3[nH]nc(-c4ccc(OC(C)C)nc4)c3c2)CCN(CC(=O)N2CC=C(c3ccc(-c4ncn(C)n4)cc3)CC2)C1` has a documented Tmax of 4

###

# Test Method Notes: Clearance in Beagle dog at 3 mg/kg, iv
# Type: ADME, organism-based, Canis lupus familiaris
# Recorded Conditions: in vivo
Measure: clearance (mL/min/kg)
Please respond with the number in mL/min/kg and leave the unit unwritten.

// CS[C@@]1(C(=O)Nc2ccc3[nH]nc(-c4ccc(OC(C)C)nc4)c3c2)CCN(CC(=O)N2CC=C(c3ccc(-c4ncn(C)n4)cc3)CC2)C1 [MK-8353] : clearance value = 3.9
